The values you see were collected from the supplement of paper PMC11246515.

- TEST_METHOD_NOTES: total protein half-life in vivo (active degradation + dilution); higher = more stable protein
- ASSAY_CONTEXT: wild type E. coli NCM3722; growth: C-lim chemostat; doubling time 3 h
VALUE_TYPE: total protein half-life in vivo (h)
Write the value in h as a bare number.

query: Kindly indicate its recorded total protein half-life in vivo. Item: MVSRKRNSVIYRFASLLLVLMLSACSALQGTPQPAPPVTDHPQEIRRDQTQGLQRIGSVSTMVRGSPDDALAEIKAKAVAAKADYYVVVMVDETIVTGQWYSQAILYRK
result: 3.29

query: Quote total protein half-life in vivo reported for MAYFLDFDERALKEWRKLGSTVREQLKKKLVEVLESPRIEANKLRGMPDCYKIKLRSSGYRLVYQVIDEKVVVFVISVGKRERSEVYSEAVKRIL [P0C077] please.
result: 3

query: Please indicate total protein half-life in vivo recorded for MTMTRLKISKTLLAVMLTSAVATGSAYAENNAQTTNESAGQKVDSSMNKVGNFMDDSAITAKVKAALVDHDNIKSTDISVKTDQKVVTLSGFVESQAQAEEAVKVAKGVEGVTSVSDKLHVRDAKEGSVKGYAGDTATTSEIKAKLLADDIVPSRHVKVETTDGVVQLSGTVDSQAQSDRAESIAKAVDGVKSVKNDLKTK [P0AFH8]
result: 2.96

query: Identify the reported total protein half-life in vivo for the following entry. MDKFDANRRKLLALGGVALGAAILPTPAFATLSTPRPRILTLNNLHTGESIKAEFFDGRGYIQEELAKLNHFFRDYRANKIKSIDPGLFDQLYRLQGLLGTRKPVQLISGYRSIDTNNELRARSRGVAKKSYHTKGQAMDFHIEGIALSNIRKAALSMRAGGVGYYPRSNFVHIDTGPARHW [P0AB06]
result: 0.68

query: Item MPRFAANLSMMFTEVPFIERFAAARKAGFDAVEFLFPYNYSTLQIQKQLEQNHLTLALFNTAPGDINAGEWGLSALPGREHEAHADIDLALEYALALNCEQVHVMAGVVPAGEDAERYRAVFIDNIRYAADRFAPHGKRILVEALSPGVKPHYLFSSQYQALAIVEEVARDNVFIQLDTFHAQKVDGNLTHLIRDYAGKYAHVQIAGLPDRHEPDDGEINYPWLFRLFDEVGYQGWIGCEYKPRGLTEEGLGWFDAWR : provide total protein half-life in vivo
result: 2.83

query: Annotate the sequence MSKRYFVTGTDTEVGKTVASCALLQAAKAAGYRTAGYKPVASGSEKTPEGLRNSDALALQRNSSLQLDYATVNPYTFAEPTSPHIISAQEGRPIESLVMSAGLRALEQQADWVLVEGAGGWFTPLSDTFTFADWVTQEQLPVILVVGVKLGCINHAMLTAQVIQHAGLTLAGWVANDVTPPGKRHAEYMTTLTRMIPAPLLGEIPWLAENPENAATGKYINLALL with its measured total protein half-life in vivo.
result: 3.06

query: Name the recorded total protein half-life in vivo of the sequence listed here: MKEKTIIIVGGGQAAAMAAASLRQQGFTGELHLFSDERHLPYERPPLSKSMLLEDSPQLQQVLPANWWQENNVHLHSGVTIKTLGRDTRELVLTNGESWHWDQLFIATGAAARPLPLLDALGERCFTLRHAGDAARLREVLQPERSVVIIGAGTIGLELAASATQRRCKVTVIELAATVMGRNAPPPVQRYLLQRHQQAGVRILLNNAIEHVVDGEKVELTLQSGETLQADVVIYGIGISANEQLAREANLDTANGIVIDEACRTCDPAIFAGGDVAITRLDNGALHRCESWENANNQAQIAAAAMLGLPLPLLPPPWFWSDQYSDNLQFIGDMRGDDWLCRGNPETQKAIWFNLQNGVLIGAVTLNQGREIRPIRKWIQSGKTFDAKLLIDENIALKSL
result: 3.07
